Quick reference: % Inhibition, HEK Blue SEAP reporter assay of the listed items.
Target: T1, hu-IL-36α (human, UniProt Q9UHA7 6-158)
T1 sequence: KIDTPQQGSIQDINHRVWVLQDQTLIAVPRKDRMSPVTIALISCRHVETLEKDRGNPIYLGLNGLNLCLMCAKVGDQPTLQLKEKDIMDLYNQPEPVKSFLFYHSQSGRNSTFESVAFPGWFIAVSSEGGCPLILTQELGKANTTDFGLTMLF
Test: cell-based or functional assay
A bare number is not enough; add the unit after it.

Look up % Inhibition, HEK Blue SEAP reporter assay for this binder: mAb3.0 Fab (Fab, V domains shown) VH: QLQLQESGPGLVKPSETLSLTCTVSGGSISSTSYYWGWIRQPPGKGLEWIGSIHYSGNTYYNPSLKSRVTISVDTSKNQFSLKLSSVTAADTAVYYCARVHYGGYIPRRFDHWGQGTLVTVSS VL: QSVLTQPPSVSGAPGQRVTISCTGSSSNIGAGYDVHWYQQLPGTAPKLLIYGNTNRPSGVPDRFSGSKSGTSASLAITGLQAEDEADYYCQSYDYSLRGYVFGGGTKLTVL
40%

Another binder to look at: mAb4.0 Fab (Fab, V domains shown) VH: QLQLQESGPGLVKPSETLSLTCTVSGGSIGSRSYYWGWIRQPPGKGLEWIGSIHYSGTTYYNPSLKSRVTISVDTSKNQFSLKLSSVTAADTAVYYCARVAPSYPRVFDYWGQGTLVTVSS VL: QSVLTQPPSVSGAPGQRVTISCTGSSSNIGAGYDVHWYQQLPGTAPKLLIYGNRNRPSGVPDRFSGSKSGTSASLAITGLQAEDEADYYCQSYDYSLRVYVFGGGTKLTVL
91%

Another binder to look at: mAb5.0 Fab (Fab, V domains shown) VH: EVQLLESGGGLVQPGGSLRLSCAASGFTFSTYAMSWVRQAPGKGLEWVSGISGGSGYTYYADSVKGRFTISRDNSKNTLYLQMNSLRAEDTAVYYCARVVTYRDPPASFDYWGQGTLVTVSS VL: QSVLTQPPSVSGAPGQRVTISCTGSSSNIGAHYDVHWYQQLPGTAPKLLIYGNDNRPSGVPDRFSGSKSGTSASLAITGLQAEDEADYYCQSYDYSLKAYVFGGGTKLTVL
75%

Another binder to look at: mAb2.0 Fab (Fab, V domains shown) VH: QLQLQESGPGLVKPSETLSLTCTVSGGSISTSSYYWGWIRQPPGKGLEWIGSIYYTGNTYYNPSLKSRVTISVDTSKNQFSLKLSSVTAADTAVYYCARVRYGVGVPRYFDPWGQGTLVTVSS VL: QSVLTQPPSVSGAPGQRVTISCTGSSSNIGAHYDVHWYQQLPGTAPKLLIYGNDNRPSGVPDRFSGSKSGTSASLAITGLQAEDEADYYCQSYDYSLSGYVFGGGTKLTVL
91%

Another binder to look at: mAb1.0 Fab (Fab, V domains shown) VH: QVQLVESGGGVVQPGRSLRLSCAASGFSFSAYAMHWVRQAPGKGLEWVAVISYDGTNEYYADSVKGRFTISRDNSKNTLYLQMNSLRAEDTAVYYCARGIRIFTSYFDSWGQGTLVTVSS VL: QSVLTQPPSVSGAPGQRVTISCTGSSSNIGAHYDVHWYQQLPGTAPKLLIYSNNNRPSGVPDRFSGSKSGTSASLAITGLQAEDEADYYCQSYDYSLRGYVFGGGTKLTVL
70%
